Measured target: T1, Mouse ST2 (mouse, UniProt P14719 27-332, limits assumed)
T1 construct: also called mouse ST2 protein
T1 sequence (looked up): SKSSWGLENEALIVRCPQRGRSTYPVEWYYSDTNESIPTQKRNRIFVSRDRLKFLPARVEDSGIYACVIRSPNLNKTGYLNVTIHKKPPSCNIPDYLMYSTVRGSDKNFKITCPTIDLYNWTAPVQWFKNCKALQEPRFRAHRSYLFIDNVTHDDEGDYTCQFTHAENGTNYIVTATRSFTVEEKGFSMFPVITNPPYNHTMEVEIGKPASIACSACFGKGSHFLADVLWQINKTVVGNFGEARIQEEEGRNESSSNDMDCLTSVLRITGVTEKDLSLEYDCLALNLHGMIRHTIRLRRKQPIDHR
Assay explanation: SPR (Carterra), antibody immobilized, ST2 analyte, 1:1
So I've got a bunch of binders here, and I need their kon values.
Answers are plain numbers, in M⁻¹ s⁻¹.

Observe how each entry below is paired with its result.
{"Binder": "Human ST2 IgG1 Antibody 105 (antibody, V domains shown, IgG1, kappa) VH: EVQLLESGGGLVQPGGSLRLSCAASGFTFSSYAMHWVRQAPGKGLEWVAVMSYDGRHEYYADSVKGRFTISRDNSKNTLYLQMNSLRAEDTAVYYCASTDYDIGGYSLPLDYWGQGTLVTVSS VL: DIQMTQSPSSLSASVGDRVTITCRASQSVSSWLAWYQQKPGKAPKLLIYAASNLQSGVPSRFSGSGSGTDFTLTISSLQPEDFATYYCQQSYDVPWTFGQGTRLEIKR", "Endpoint unit": "M⁻¹ s⁻¹", "kon": 410000}
{"Binder": "Human ST2 IgG1 Antibody 38 (antibody, V domains shown, IgG1, kappa; also called ST2 Antibody 38) VH: QVQLVQSGAEVKKPGSSVKVSCKASGGTFSSYAISWVRQAPGQGLEWMGTIIPMFGIADYAQKFQGRVTITADESTSTAYMELSSLRSEDTAVYYCARSSRSSSWYNWYFDLWGRGTLVTVSS VL: EIVMTQSPATLSVSPGERATLSCRASQSISSSYLAWYQQKPGQAPRLLIYGASTRATGIPARFSGSGSGTEFTLTISSLQSEDFAVYYCQQYYTTPWTFGQGTKVEIKR", "Endpoint unit": "M⁻¹ s⁻¹", "kon": 170000}
{"Binder": "Human ST2 IgG1 Antibody 35 (antibody, V domains shown, IgG1, kappa; also called ST2 Antibody 35) VH: QVQLVQSGAEVKKPGASVKVSCKASAYTFTSYGISWLRQAPGQGLEWMGWINPNSGNTGYAHKFQGRVTMTRDTSTSTVYMELSSLRSEDTAVYYCARGGSGWPTWGQGTLVTVSS VL: DIQMTQSPSSLSASVGDRVTITCQASQDISNYLNWYQQKPGKAPKLLIYGASSLQSGVPSRFSGSGSGTDFTLTISSLQPEDFATYYCQQANTFPFTFGPGTKVDIKR", "Endpoint unit": "M⁻¹ s⁻¹", "kon": 170000}

# per-item lookup of kon; items listed below
1. Human ST2 IgG1 Antibody 76 (antibody, V domains shown, IgG1, kappa; also called ST2 Antibody 76) VH: QVQLVQSGAEVKKPGSSVKVSCKASGYTFTDYYMHWVRQAPGQGLEWMGVIIPVLGAAKYAQKFQGRVTITADESTSTAYMELSSLRSEDTAVYYCAKGWGAFDIWGQGTMVTVSS VL: EIVMTQSPATLSVSPGERATLSCRASQSVSSYLAWYQQKPGQAPRLLIYGASTRASGIPARFSGSGSGTEFTLTISSLQSEDFAVYYCQQYYSYPWTFGQGTKVEIKR
2. Human ST2 IgG1 Antibody 20 (antibody, V domains shown, IgG1, kappa; also called ST2 Antibody 20) VH: EVQLLESGAEVKKPGSSVKVSCKASGGTFSSYAISWVRQAPGQGLEWMGGIIPIFGTANYAQKFQGRVTITADESTSTAYMELSSLRSEDTAVYYCASGFYSNDLYYYYYMDVWGKGTTVTVSS VL: DIQMTQSPSSLSASVGDRVTITCRASQSISSWLAWYQQKPGKAPKLLIYDASNLKTGVPSRFSGSGSGTDFTLTISSLQPEDFATYYCQQTYAIPLTFGGGTKVEIKR
3. Human ST2 IgG1 Antibody 104 (antibody, V domains shown, IgG1, kappa) VH: QVQLVQSGAEVKKPGSSVKVSCKASGYTFTNYAIIWVRQAPGQGLEWMGGIIPVFGTADYTQTFQGRVTITADESTSTAYMELSSLRSEDTAVYYCARVSTNYYDSSGYYAFDYWGQGTLVTVSS VL: DIQMTQSPSSLSASVGDRVTITCRASQSISSYLNWYQQKPGKAPKLLIYDASSLQSGVPSRFSGSGSGTDFTLTISSLQPEDFATYYCQQTYHTPWTFGQGTKVEIKR
4. Human ST2 IgG1 Antibody 70 (antibody, V domains shown, IgG1, kappa; also called ST2 Antibody 70) VH: QVQLVQSGAEVKKPGSSVKVSCKASGYAFTDYFIHWVRQAPGQGLEWMGGIIPIFGTANYAQKFQGRVTITADKSTSTAYMELSSLRSEDTAVYYCARVAYGAFDIWGQGTMVTVSS VL: EIVMTQSPATLSVSPGERATLSCRASQSVSSSYLAWYQQKPGQAPRLLIYGASTRATGIPARFSGSGSGTEFTLTISSLQSEDFAVYYCQQYNNWPLTFGGGTKVEIKR
5. Human ST2 IgG1 Antibody 52 (antibody, V domains shown, IgG1, kappa; also called ST2 Antibody 52) VH: QVQLVQSGAEVKKPGSSVKVSCKASGGTFSNYAISWVRQAPGQGLEWMGWISAYNGNTNYAQKFQGRVTITADESTSTAYMELSSLRSEDTAVYYCARLSTVTTRPYYYYGMDVWGQGTTVTVSS VL: DIVMTQSPLSLPVTPGEPASISCRSSQSLLHSNGYNYLDWYLQKPGQSPQLLIYAASSLQGGVPDRFSGSGSGTDFTLKISRVEAEDVGVYYCMQGTHWPTFGQGTKVEIKR
6. Human ST2 IgG1 Antibody 44 (antibody, V domains shown, IgG1, kappa; also called ST2 Antibody 44) VH: EVQLLESGGGLVKPGGSLRLSCAASGFTFSSYWMSWVRQAPGKGLEWVSAISGTAINTYYADSVKGRFTISRDDSKNTLYLQMNSLKTEDTAVYYCARVRRDSSGGGAFDIWGQGTMVTVSS VL: DIQMTQSPSSLSASVGDRVTITCRASQGISNNLNWYQQKPGKAPKLLIYAASSLQTGVPSRFSGSGSGTDFTLTISSLQPEDFATYYCQQSYSTPPTFGQGTKVEIKR

1. 180000
2. 77000
3. 140000
4. 33000
5. 59000
6. 110000

Entry Human ST2 IgG1 Antibody 9 (antibody, V domains shown, IgG1, kappa; also called ST2 Antibody 9) VH: EVQLLESGGGLVQPGGSLRLSCAASGFAFSSHWMHWVRQAPGKGLEWVATISSGSHSIHYADSVKGRFTISRDNSKNTLYLQMNSLRAEDTAVYYCAREAGTSYYYYGMDVWGKGTTVTVSS VL: DIQMTQSPSSLSASVGDRVTITCQASQDIRNYLNWYQQKPGKAPKLLIYKASSLESGVPSRFSGSGSGTDFTLTISSLQPEDFATYYCQQSYSTPPTFGGGTKVEIKR has what kon?
91000
